The measurements presented in this section are drawn from patent EP4656642A1.

target: ERα (Homo sapiens, UniProt P03372); experiment: Degradation of ERα in T-47D cells (immunoblotting, 4 h); format: cell-based; parameters: host or cells: T-47D; settings: 10nM compound
observed-property: Degradation rate (%) of ERα in T-47D cells

Before answering, review these 3 worked examples.
compound	reported-value
C[C@@H]1Cc2cc(O)ccc2C(c2c(F)cc(N3CCC4(CCN(CC(=O)N5CCC6(CC5)COc5c6ccc6c5CN(C5CCC(=O)NC5=O)C6=O)CC4)CC3)cc2F)N1CC(F)F (some centres unmarked) [F4]	79
O=C1CCC(N2Cc3c(ccc4c3OCC43CCN(C(=O)[C@H]4C[C@H](OC5CCN(c6ccc([C@@H]7c8ccc(O)cc8CC[C@@H]7c7ccccc7)cc6)CC5)C4)CC3)C2=O)C(=O)N1 (some centres unmarked) [K48]	80
O=C1CCC(N2Cc3cc4c(cc3C2=O)OC2(CC4)CCN(C(=O)CN3CCC4(CC3)CCN(c3ccc([C@@H]5c6ccc(O)cc6CC[C@@H]5c5ccccc5)cc3)CC4)CC2)C(=O)N1 (some centres unmarked) [A67]	76

1. CC1CN(C(=O)C2CCN(c3ccc(C4c5ccc(O)cc5CCC4c4ccccc4)cc3)CC2)CCC1N1CCC2(CC1)COc1c2ccc2c1CN(C1CCC(=O)NC1=O)C2=O (centres unmarked) [K23]
2. O=C1CCC(N2Cc3ccc4c(c3C2=O)OCC42CCN(C3CCC4(CC3)CN(c3ccc([C@@H]5c6ccc(O)cc6CC[C@@H]5c5ccccc5)cc3)C4)CC2)C(=O)N1 (some centres unmarked) [L25]
Req: Which value of Degradation rate (%) of ERα in T-47D cells is smaller, the one for 1 or the one for 2 ? Output the label that corresponds to your choice.
Resp: 2

I. O=C1CCC(N2C(=O)c3cc4c(cc3C2=O)C2(CCN(CC3CCN(c5ccc(C6c7ccc(O)cc7CCC6c6ccccc6)cc5)CC3)CC2)CO4)C(=O)N1 (centres unmarked) [A8]
II. O=C1CCC(N2Cc3cc4c(cc3C2=O)CCC2(CN(CC3CC5(CCN(c6ccc([C@@H]7c8ccc(O)cc8CC[C@@H]7c7ccccc7)cc6)CC5)C3)C2)O4)C(=O)N1 (some centres unmarked) [B12]
III. CC1CN(C2CC3(CCN(c4ccc([C@@H]5c6ccc(O)cc6CC[C@@H]5c5ccccc5)cc4)CC3)C2)CCC1N1CCC2(CC1)COc1c2ccc2c1CN(C1CCC(=O)NC1=O)C2=O (some centres unmarked) [K20]
IV. C[C@@H]1Cc2c(ccc3[nH]ncc23)C(c2ccc(N3CCC(C(=O)N4CCC(N5CCC6(CC5)COc5c6ccc6c5CN(C5CCC(=O)NC5=O)C6=O)CC4)CC3)cn2)N1CC(F)(F)F (some centres unmarked) [B42]
Req: Given 4 compounds, produce a descending ranking by Degradation rate (%) of ERα in T-47D cells. Enter labels, ranked according to the request.
Resp: III, IV, II, I

* * *

Biological target: UniProtKB P03372
Assay: Degradation of ERα in MCF-7 cells (immunoblotting, 4 h)
Type: cell-based
Details: 10nM compound
Experimental: MCF-7 cells were inoculated into 6-well plates at a density of 3×10^5 cells/well and cultured at 37°C, 5% CO2 for 24h. […] Protein immunoblotting: The total protein concentration in the collected cell lysate supernatant was determined by BCA Protein Concentration Assay Kit (Enhanced) (P0009, Beyotime). […] Protein profiles were analyzed by Image Studio Lite analysis software for grayscale values. […]
observed-property: Degradation rate (%) of ERα in MCF-7 cells

molecule	target-under-test	reported-value
O=C1CCC(N2Cc3c(ccc4c3OCC43CCN(C4CCN(C5CC6(CCN(c7ccc([C@@H]8c9ccc(O)cc9CC[C@@H]8c8ccccc8)cc7)CC6)C5)[C@H](C(=O)NC5CCCC5)C4)CC3)C2=O)C(=O)N1 (stereo partly drawn)	UniProtKB P03372	73
O=C1CCC(N2Cc3c(ccc4c3OCC43CCN(CC(=O)N4CCC5(CC4)CN(c4ccc([C@@H]6c7ccc(O)cc7CC[C@@H]6c6ccccc6)cc4)C5)CC3)C2=O)C(=O)N1 (stereo partly drawn)	UniProtKB P03372	70
C[C@@H]1Cc2c(ccc3[nH]ncc23)C(c2c(F)cc(N3CCC4(CCC(N5CCC6(CC5)COc5c6ccc6c5CN(C5CCC(=O)NC5=O)C6=O)CC4)CC3)cc2F)N1CC(F)F (stereo partly drawn)	UniProtKB P03372	45
O=C1CCC(N2Cc3cc4c(cc3C2=O)OC2(CC4)CN(C3CC4(CCC5(CCN(c6ccc([C@@H]7c8ccc(O)cc8CC[C@@H]7c7ccccc7)cc6)CC5)CC4)C3)C2)C(=O)N1 (stereo partly drawn)	UniProtKB P03372	11

a. O=C1CCC(N2Cc3c(ccc4c3OCC43CCN(C4CCN(C(=O)C5CCC6(CC5)CCN(c5ccc([C@@H]7c8ccc(O)cc8CC[C@@H]7c7ccccc7)cc5)CC6)CC4)CC3)C2=O)C(=O)N1 (stereo partly drawn)
b. O=C1CCC(N2C(=O)c3ccc4c(c3C2=O)OCC42CCN(C(=O)CN3CCC4(CC3)CCN(c3ccc([C@@H]5c6ccc(O)cc6CC[C@@H]5c5ccccc5)cc3)CC4)CC2)C(=O)N1 (stereo partly drawn)
Req: Which one would you say has the larger Degradation rate (%) of ERα in MCF-7 cells value: a , or b ? Output the label that corresponds to your choice.
Resp: a

* * *

Target: ERα (Homo sapiens)
Sequence (P03372 1-595): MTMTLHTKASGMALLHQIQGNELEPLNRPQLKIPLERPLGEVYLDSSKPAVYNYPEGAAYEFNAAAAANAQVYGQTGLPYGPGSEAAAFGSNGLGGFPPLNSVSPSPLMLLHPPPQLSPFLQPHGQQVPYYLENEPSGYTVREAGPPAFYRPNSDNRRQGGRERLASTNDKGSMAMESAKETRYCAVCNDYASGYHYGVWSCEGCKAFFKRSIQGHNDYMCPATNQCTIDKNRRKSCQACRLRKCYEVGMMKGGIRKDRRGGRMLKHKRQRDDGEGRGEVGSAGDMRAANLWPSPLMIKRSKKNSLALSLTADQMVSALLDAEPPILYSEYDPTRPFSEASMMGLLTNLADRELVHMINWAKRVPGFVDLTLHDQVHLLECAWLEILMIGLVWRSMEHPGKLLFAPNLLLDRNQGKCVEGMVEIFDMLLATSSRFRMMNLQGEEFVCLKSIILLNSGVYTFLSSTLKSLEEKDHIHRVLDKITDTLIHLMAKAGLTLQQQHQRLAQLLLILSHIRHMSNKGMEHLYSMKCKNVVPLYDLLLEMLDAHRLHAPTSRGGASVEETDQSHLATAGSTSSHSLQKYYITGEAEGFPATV
Test: Degradation of ERα in MCF-7 cells (immunoblotting, 4 h)
Type: cell-based
Conditions: 10nM compound
observed-property: Degradation rate (%) of ERα in MCF-7 cells

compound	reported-value
O=C1CCC(N2Cc3cc4c(cc3C2=O)OC2(CC4)CCN(C(=O)CN3CCC4(CC3)CCN(c3ccc([C@@H]5c6ccc(O)cc6CC[C@@H]5c5ccccc5)cc3)CC4)CC2)C(=O)N1 (some centres unmarked)	67

I. C[C@@H]1Cc2cc(O)ccc2C(c2c(F)cc(N3CCC(C(=O)N4CCC(N5CCC6(CC5)COc5c6ccc6c5CN(C5CCC(=O)NC5=O)C6=O)[C@H](F)C4)CC3)cc2F)N1CC(F)F (some centres unmarked)
II. O=C1CCC(N2Cc3ccc4c(c3C2=O)OCC42CCN(C(=O)CN3CCC4(CCN(c5ccc([C@@H]6c7ccc(O)cc7CC[C@@H]6c6ccccc6)cc5)CC4)C3)CC2)C(=O)N1 (some centres unmarked)
III. O=C1CCC(N2C(=O)c3cc4c(cc3C2=O)C2(CCN(C3CC5(CCN(c6ccc(C7c8ccc(O)cc8CCC7c7ccccc7)cc6)CC5)C3)CC2)CO4)C(=O)N1 (centres unmarked)
IV. CN(CC1CCN(c2ccc([C@@H]3c4ccc(O)cc4CC[C@@H]3c3ccccc3)cc2)CC1)[C@H]1CC[C@H](C(=O)N2CCC3(CC2)COc2c3ccc3c2CN(C2CCC(=O)NC2=O)C3=O)CC1 (some centres unmarked)
Req: Given 4 compounds, produce a descending ranking by Degradation rate (%) of ERα in MCF-7 cells. Enter labels, ranked according to the request.
Resp: II, I, III, IV

* * *

Target: ERα (Homo sapiens, UniProt P03372)
Sequence (P03372 1-595): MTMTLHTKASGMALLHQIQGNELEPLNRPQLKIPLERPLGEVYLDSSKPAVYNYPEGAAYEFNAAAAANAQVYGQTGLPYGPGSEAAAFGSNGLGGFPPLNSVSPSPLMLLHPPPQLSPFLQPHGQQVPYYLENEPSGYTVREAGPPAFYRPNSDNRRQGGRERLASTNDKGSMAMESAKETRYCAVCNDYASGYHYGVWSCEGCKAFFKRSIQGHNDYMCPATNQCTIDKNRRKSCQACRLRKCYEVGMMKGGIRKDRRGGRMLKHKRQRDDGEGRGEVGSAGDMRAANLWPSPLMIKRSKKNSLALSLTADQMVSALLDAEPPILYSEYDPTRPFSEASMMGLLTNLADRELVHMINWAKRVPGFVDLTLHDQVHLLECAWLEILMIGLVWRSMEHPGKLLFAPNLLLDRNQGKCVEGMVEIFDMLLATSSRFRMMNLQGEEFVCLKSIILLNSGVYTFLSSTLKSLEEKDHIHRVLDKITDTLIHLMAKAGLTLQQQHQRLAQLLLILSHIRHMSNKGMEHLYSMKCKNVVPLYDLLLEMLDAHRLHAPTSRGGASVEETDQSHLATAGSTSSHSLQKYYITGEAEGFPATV
Experiment: Degradation of ERα in T-47D cells (immunoblotting, 4 h)
Format: cell-based
Design: host or cells: T-47D
Settings: 1nM compound
observed-property: Degradation rate (%) of ERα in T-47D cells

compound	target-under-test	reported-value
C[C@@H]1Cc2cc(O)ccc2C(c2c(F)cc(N3CCC(C(=O)N4CCC(N5CCC6(CC5)COc5c6ccc6c5CN(C5CCC(=O)NC5=O)C6=O)[C@H](F)C4)CC3)cc2F)N1CC(F)F (stereo partly drawn)	ERα (Homo sapiens, UniProt P03372)	59
O=C1CCC(N2Cc3c(ccc4c3OCC43CCN(C(=O)C4CCN(C5CCN(c6ccc([C@@H]7c8ccc(O)cc8CC[C@@H]7c7ccccc7)cc6)CC5)CC4)CC3)C2=O)C(=O)N1 (stereo partly drawn) [K7]	ERα (Homo sapiens, UniProt P03372)	63
O=C1CCC(N2Cc3cc4c(cc3C2=O)OC2(CC4)CN(C3CCN(C(=O)C4CCN(c5ccc([C@@H]6c7ccc(O)cc7CC[C@@H]6c6ccccc6)cc5)CC4)CC3)C2)C(=O)N1 (stereo partly drawn)	ERα (Homo sapiens, UniProt P03372)	51
